Parameter IC50: see the listing below.
Target: Histone-lysine N-methyltransferase EZH2 (Homo sapiens)
Assay: Inhibition of N-terminal FLAG-tagged EZH2 in PRC2 complex (unknown origin) expressed in baculovirus infected Sf9 cells using H2N-RKQLATKAAR(Kme0)SAPATGGVKKP-NTPEGBiot peptide as substrate preincubated with [3H]SAM for 4 to 5 hrs followed by substrate addition and measured after 20 hrs by Topcount reader analysis
Sequence (Q15910 whole entry): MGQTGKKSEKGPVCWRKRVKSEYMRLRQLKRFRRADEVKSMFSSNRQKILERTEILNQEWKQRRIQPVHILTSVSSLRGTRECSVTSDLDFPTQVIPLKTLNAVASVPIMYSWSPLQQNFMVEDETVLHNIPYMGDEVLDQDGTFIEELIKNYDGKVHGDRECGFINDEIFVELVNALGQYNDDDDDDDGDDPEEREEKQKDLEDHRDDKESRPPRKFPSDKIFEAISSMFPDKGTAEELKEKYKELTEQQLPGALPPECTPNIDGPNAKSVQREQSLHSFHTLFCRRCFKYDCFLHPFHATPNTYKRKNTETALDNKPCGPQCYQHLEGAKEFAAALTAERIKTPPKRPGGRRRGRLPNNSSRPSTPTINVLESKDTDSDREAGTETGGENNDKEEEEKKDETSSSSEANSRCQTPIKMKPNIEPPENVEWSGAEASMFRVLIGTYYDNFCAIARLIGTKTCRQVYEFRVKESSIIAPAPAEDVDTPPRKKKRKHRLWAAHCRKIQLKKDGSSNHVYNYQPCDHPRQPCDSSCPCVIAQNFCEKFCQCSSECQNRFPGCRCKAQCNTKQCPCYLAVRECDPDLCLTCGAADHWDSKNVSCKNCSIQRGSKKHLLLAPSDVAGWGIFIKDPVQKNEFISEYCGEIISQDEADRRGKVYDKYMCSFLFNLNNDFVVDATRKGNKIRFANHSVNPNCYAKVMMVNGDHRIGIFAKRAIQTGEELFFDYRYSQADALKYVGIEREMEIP
Record the value in nM, omitting the unit from your answer.

given_smiles=CSc1cc(C)[nH]c(=O)c1CNC(=O)c1c(C)n([C@H](C)[C@H]2CC[C@H](N3CC(OC(F)(F)F)C3)CC2)c2ccccc12 meas_value=0.14
given_smiles=Cc1cc(SCc2ccccc2)c(CNC(=O)c2c(C)n([C@H](C)C3CCN(CC(F)(F)F)CC3)c3ccccc23)c(=O)[nH]1 meas_value=3.8
given_smiles=CSc1cc(C)[nH]c(=O)c1CNC(=O)c1c(C)n([C@H](C)[C@H]2CC[C@H](N3CC(OC4CC4)C3)CC2)c2ncc(F)cc12 meas_value=0.06

API: the following record is the query input.
Task: Quick one: IC50 of "CSc1cc(C)[nH]c(=O)c1CNC(=O)c1c(C)n([C@H](C)[C@H]2CC[C@H](N3CC(OC4CC4)C3)CC2)c2c(F)cccc12" ?
Output: 0.063

---

System: CYP3A4
Assay: Upregulation of CYP3A4 mRNA expression in human Fa2N-4 cells at 10 uM after 3 days relative to control
Assay type: ADME, cell-based
Settings: read-out: FC
Measured attribute: fold induction at 72 h, 10 µM
Lab note: record the figure alone, no unit after it.

given_smiles=CSc1cc(C)[nH]c(=O)c1CNC(=O)c1c(C)n([C@H](C)[C@H]2CC[C@H](NC3COC3)CC2)c2ccccc12 measured_attribute="fold induction at 72 h, 10 µM" meas_value=5

Task: Quick one: fold induction at 72 h, 10 µM of "CSc1cc(C)[nH]c(=O)c1CNC(=O)c1c(C)n([C@H](C)[C@H]2CC[C@H](N3CC(OC4CC4)C3)CC2)c2ncc(F)cc12" ?
Output: 12

Task: Quick one: fold induction at 72 h, 10 µM of "CSc1cc(C)[nH]c(=O)c1CNC(=O)c1c(C)n([C@H](C)[C@H]2CC[C@@H](N3CC(F)(F)C3)CC2)c2ccccc12" ?
Output: 45

Task: Quick one: fold induction at 72 h, 10 µM of "CSc1cc(C)[nH]c(=O)c1CNC(=O)c1c(C)n([C@H](C)C2CCN(C3COC3)CC2)c2ccccc12" ?
Output: 6.4

Task: Quick one: fold induction at 72 h, 10 µM of "CSc1cc(C)[nH]c(=O)c1CNC(=O)c1c(C)n([C@H](C)[C@H]2CC[C@H](N3CC(OC4CC4)C3)CC2)c2ncc(Cl)cc12" ?
Output: 1.6

---

Target: Histone-lysine N-methyltransferase EZH2 (Homo sapiens)
Assay: Binding affinity to N-terminal FLAG-tagged EZH2 in PRC2 complex (unknown origin) expressed in baculovirus infected Sf9 cells assessed as residence time at 21 nM pre-equilibrated with enzyme followed by incubation with bio-EZH2i and measured after 3 to 6 mins by TR-FRET assay
Sequence (Q15910 whole entry, looked up): as the sequence (Q15910 whole entry) above
Parameter TIME: see the listing below.
Record the value in h, omitting the unit from your answer.

Task: Quick one: TIME of "CSc1cc(C)[nH]c(=O)c1CNC(=O)c1c(C)n([C@H](C)[C@H]2CC[C@H](N3CC(OC4CC4)C3)CC2)c2ccccc12" ?
Output: 289

---

Assay: Dose normalized AUClast in CB-17 SCID mouse xenografted with human KARPAS422 cells at 25 mg/kg, po bid for 21 days and measured after 10 hrs post first dose at day 1 by LC-MS analysis
Type: ADME, organism-based, KARPAS-422
Settings: in vivo
Measured attribute: AUClast/dose

Task: Quick one: AUClast/dose of "CSc1cc(C)[nH]c(=O)c1CNC(=O)c1c(C)n([C@H](C)[C@H]2CC[C@H](N3CC(OC4CC4)C3)CC2)c2ncccc12" ?
Output: 46.5 ng·h/mL/(mg/kg)

---

Parameter fraction unbound: see the listing below.
Experiment: Protein binding in mouse plasma
Format: ADME, cell-free
Conditions: read-out: PPB (converted)
Lab note: record the figure alone, no unit after it.

given_smiles=CSc1cc(C)[nH]c(=O)c1CNC(=O)c1c(C)n([C@H](C)[C@H]2CC[C@H](N3CC(OC4CC4)C3)CC2)c2ncccc12 measured_attribute="fraction unbound" meas_value=0.13

API: the following record is the query input.
Task: Quick one: fraction unbound of "CSc1cc(C)[nH]c(=O)c1CNC(=O)c1c(C)n([C@H](C)C2CCN(CC(F)(F)F)CC2)c2ccccc12" ?
Output: 0.002

---

Target: Histone-lysine N-methyltransferase EZH2 (Homo sapiens, UniProt Q15910)
Assay: Inhibition of EZH2 in human HeLa cells assessed as inhibition of trimethylation of H3K27 after 72 hrs by AlphaLISA assay
Parameter log10 of EC50: see the listing below.
Lab note - EC50 converted to log10 from values in nM.

See these solved cases before continuing.
given_smiles=CSc1cc(C)[nH]c(=O)c1CNC(=O)c1c(C)n([C@H](C)[C@H]2CC[C@H](NC3COC3)CC2)c2ccccc12 meas_value=0.83
given_smiles=CSc1cc(C)[nH]c(=O)c1CNC(=O)c1c(C)n([C@H](C)C2CCN(C3COC3)CC2)c2ccccc12 meas_value=0.71
given_smiles=CSc1cc(C)[nH]c(=O)c1CNC(=O)c1c(C)n([C@H](C)[C@H]2CC[C@H](N3CC(OC4CC4)C3)CC2)c2ncc(F)cc12 meas_value=0.26

Task: Quick one: log10 of EC50 of "CCSc1cc(C)[nH]c(=O)c1CNC(=O)c1c(C)n([C@H](C)C2CCN(CC(F)(F)F)CC2)c2ccccc12" ?
Output: 1.66

---

Parameter fold induction at 72 h, 10 µM: see the listing below.
Test system: CYP3A4
Test: Upregulation of CYP3A4 mRNA expression in human Fa2N-4 cells at 10 uM after 3 days relative to control
Type: ADME, cell-based
Details: read-out: FC
Lab note: record the figure alone, no unit after it.

See these solved cases before continuing.
given_smiles=CSc1cc(C)[nH]c(=O)c1CNC(=O)c1c(C)n([C@H](C)[C@H]2CC[C@H](N3CC(OC4CC4)C3)CC2)c2ccccc12 meas_value=17
given_smiles=CSc1cc(C)[nH]c(=O)c1CNC(=O)c1c(C)n([C@H](C)[C@H]2CC[C@H](N3CC(OC(F)(F)F)C3)CC2)c2ccccc12 meas_value=41
given_smiles=CSc1cc(C)[nH]c(=O)c1CNC(=O)c1c(C)n([C@H](C)C2CCN(CC(F)(F)F)CC2)c2ccccc12 meas_value=25
given_smiles=COC1CN([C@H]2CC[C@H]([C@@H](C)n3c(C)c(C(=O)NCc4c(SC)cc(C)[nH]c4=O)c4ccccc43)CC2)C1 meas_value=2
given_smiles=CSc1cc(C)[nH]c(=O)c1CNC(=O)c1c(C)n([C@H](C)[C@H]2OC[C@H](N(C)C)CO2)c2ccccc12 meas_value=3
given_smiles=CSc1cc(C)[nH]c(=O)c1CNC(=O)c1c(C)n([C@H](C)[C@H]2CC[C@H](N3CC(OC(F)F)C3)CC2)c2ccccc12 meas_value=32

Task: Please tell me: fold induction at 72 h, 10 µM of "CSc1cc(C)[nH]c(=O)c1CNC(=O)c1c(C)n([C@H](C)[C@H]2CC[C@H](N3CC(OC4CC4)C3)CC2)c2ncccc12" , system CYP3A4?
Output: 2.2

---

Parameter TIME: see the listing below.
Target: Histone-lysine N-methyltransferase EZH2 (Homo sapiens, UniProt Q15910)
Assay: Binding affinity to N-terminal FLAG-tagged EZH2 in PRC2 complex (unknown origin) expressed in baculovirus infected Sf9 cells assessed as residence time at 21 nM pre-equilibrated with enzyme followed by incubation with bio-EZH2i and measured after 3 to 6 mins by TR-FRET assay
Record the value in h, omitting the unit from your answer.

See these solved cases before continuing.
given_smiles=CSc1cc(C)[nH]c(=O)c1CNC(=O)c1c(C)n([C@H](C)C2CCN(CC(F)(F)F)CC2)c2ccccc12 meas_value=46.3
given_smiles=CSc1cc(C)[nH]c(=O)c1CNC(=O)c1c(C)n([C@H](C)C2CCN(CC(C)(C)O)CC2)c2ccccc12 meas_value=7.52
given_smiles=COC1CN([C@H]2CC[C@H]([C@@H](C)n3c(C)c(C(=O)NCc4c(SC)cc(C)[nH]c4=O)c4ccccc43)CC2)C1 meas_value=141
given_smiles=CSc1cc(C)[nH]c(=O)c1CNC(=O)c1c(C)n([C@H](C)[C@H]2CC[C@H](N3CC(OC4CC4)C3)CC2)c2ncccc12 meas_value=57.5

Task: Quick one: TIME of "CSc1cc(C)[nH]c(=O)c1CNC(=O)c1c(C)n([C@H](C)[C@H]2CC[C@H](N3CC(OC4CC4)C3)CC2)c2ncncc12" ?
Output: 51.9

Task: Quick one: TIME of "CSc1cc(C)[nH]c(=O)c1CNC(=O)c1c(C)n([C@H](C)[C@H]2CC[C@H](NC3COC3)CC2)c2ccccc12" ?
Output: 138

Task: Quick one: TIME of "CSc1cc(C)[nH]c(=O)c1CNC(=O)c1c(C)n([C@H](C)[C@H]2CC[C@H](N3CC(OC4CC4)C3)CC2)c2c(F)cccc12" ?
Output: 100

Task: Quick one: TIME of "CSc1cc(C)[nH]c(=O)c1CNC(=O)c1c(C)n([C@H](C)[C@H]2CC[C@H](N3CC(OC4CC4)C3)CC2)c2ncc(Cl)cc12" ?
Output: 64.2

Every entry's value here was drawn from ChEMBL document CHEMBL4616701.
